Attribution: paper PMC3325190

# measured.on: T1, AmrZ WT (Pseudomonas aeruginosa PAO1, UniProt G3XCY4 1-108)
# T1 sequence: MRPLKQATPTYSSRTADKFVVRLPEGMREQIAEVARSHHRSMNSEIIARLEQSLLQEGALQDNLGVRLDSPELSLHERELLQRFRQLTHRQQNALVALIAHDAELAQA
# assay.method.text: fluorescence anisotropy
# experimental.setup: protein: recombinant; tags: N-terminal poly-His with 3C site, cleaved by PreScission; chain copies: 4; blunt
pKd: −log10 of the molar value.
Respond with True for pKd values of 7 and above, False for values below.

Recorded results for 5 binders are shown here.
binder	qualitative.label
ATAT amrZ1 (dsDNA) DNA 1: GTACTGGCATATCGCCGGCACG DNA 2: CGTGCCGGCGATATGCCAGTAC	True
TTTT amrZ1 (dsDNA) DNA 1: GTACTGGCTTTTCGCCGGCACG DNA 2: CGTGCCGGCGAAAAGCCAGTAC	True
WT amrZ1 (dsDNA) DNA 1: GTACTGGCAAAACGCCGGCACG DNA 2: CGTGCCGGCGTTTTGCCAGTAC	True
m8 algD (dsDNA) DNA 1: CATTGGCAATTACCAGCCTCCC DNA 2: GGGAGGCTGGTAATTGCCAATG	False
m16 algD (dsDNA) DNA 1: CATTGGCCATTACCATCCTCCC DNA 2: GGGAGGATGGTAATGGCCAATG	False

We next turn to a different binder, shown below.
Ask: Tell me whether pKd is at least 7 here: m6 algD (dsDNA) DNA 1: CATTGTCCATTACCAGCCTCCC DNA 2: GGGAGGCTGGTAATGGACAATG
Reply: False
